Origin of the recorded values: PubChem BioAssay (NCI)

System: SN12C renal
Assay Name: NCI tumour cell line growth inhibition, 48 h; in the data active = GI50 below about 0.43 µM; inactive = the rest
Bench note: report the call from active, inactive

Look over these answered cases.
>>> group("CC(=O)OCCC/C(=C/c1cc2ccccc2c2ccccc12)[N+](=O)[O-]")
"inactive"
>>> group("COc1ccc2c(ccc3oc([N+](=O)[O-])cc32)c1")
"active"
>>> group("O=CCC(O)C(O)C(O)CO (stereo unspecified)")
"inactive"
>>> group("COc1ccc(/C=C\\c2cc(OC)c(OC)c(OC)c2)cc1N/C=C\\C(=O)c1c[nH]c2ccccc12")
"active"
>>> group("COC(=O)C[C@@H]1CC=CC(=O)/C1=C(O)/C=C/c1ccccc1")
"inactive"

Attention now shifts to the item below.
In: Could you please tell me the result logged for CCC1C[N+]2=C(c3cc(OC)c(OC)cc3CC2)c2c1cc1n2CCc2cc(OC)c(OC)cc2-1 (stereo unspecified) in this assay?
Out: inactive

----------
TGI: recorded values
Tested on: MALME-3M melanoma
Assay Name: NCI tumour cell line growth inhibition, 48 h

In: Read off the recorded TGI for CC(=O)O[C@H]1C(=O)[C@@]2(C)[C@H]([C@H](OC(=O)c3ccccc3)[C@]3(O)C[C@H](OC(=O)[C@H](O)[C@@H](NC(=O)C(C)(O)C(C)O)c4ccccc4)C(C)=C1C3(C)C)[C@]1(OC(C)=O)CO[C@@H]1C[C@@H]2O (stereo partly specified)
Out: > 50 µM

In: Read off the recorded TGI for CN1C(CC(O)c2ccccc2)CCCC1CC(O)(c1ccccc1)c1ccccc1 (stereo unspecified)
Out: 33.8 µM

In: Read off the recorded TGI for O=C(O)c1ccc(C2=Nc3cccc4cccc(c34)N2)cc1
Out: > 100 µM

In: Read off the recorded TGI for Fc1c(F)c(F)c(CSc2nc3ccccc3[nH]2)c(F)c1F
Out: > 100 µM

----------
TGI: recorded values
Tested on: SN12C renal
Assay Name: NCI tumour cell line growth inhibition, 48 h

Examples with their reported TGI follow.
>>> recorded_result("COC(=O)CCC(=O)Nc1cc(C)ccc1C")
"> 100 µM"
>>> recorded_result("COc1cc2ccnc(-c3n[nH]c4cc(OC)c(OC)cc34)c2cc1OC")
"> 100 µM"
>>> recorded_result("COc1ccc(-n2nc(C(=O)c3ccccc3)c3nn4c(=O)cc(-c5ccccc5)nc4nc32)cc1")
"> 100 µM"
>>> recorded_result("COc1c(OC)c(OC)c2c(=O)c(OC)c(-c3ccc4c(c3)OCO4)oc2c1OC")
"> 100 µM"
>>> recorded_result("Cc1ccc(S(=O)(=O)Nc2cc(=O)[nH]c3c2CCC3)cc1")
"> 100 µM"
>>> recorded_result("CC1=C(C(=O)NCc2ccccc2)C(c2ccc(N(C)C)cc2)C(C(=O)NCc2ccccc2)=C(C)N1")
"> 100 µM"
>>> recorded_result("CC(C)CCCC(C)[C@H]1CCC2C3CC=C4C[C@@H](OC(=O)CC(CC(=O)[O-])C(=O)[O-])CC[C@]4(C)C3CC[C@@]21C.N.N.[Pt+4] (some centres undefined)")
"> 100 µM"
>>> recorded_result("COc1cc2c3c(n(CCCN=[N+]=[N-])c(=O)c2cc1OC)-c1ccc(NC(C)=O)cc1C3=O")
"> 50 µM"

Turning now to a further record.
In: Read off the recorded TGI for CC(NC(=O)c1ccc(OP(=O)(OCc2ccc([N+](=O)[O-])o2)N(C)CCCCCl)cc1)c1ccc(OCC2CCCCC2)c(C(N)=O)c1 (centres undefined)
Out: 6.15 µM

----------
Test system: SN12C renal
Assay Name: NCI tumour cell line growth inhibition, 48 h
GI50: recorded values

Examples with their reported GI50 follow.
>>> recorded_result("O=C1Nc2cc(-c3ccc(O)cc3)ccc2/C1=C/c1ccc[nH]1")
"0.609 µM"
>>> recorded_result("CC(C)CCCC(C)[C@H]1CCC2C3CC=C4C[C@@H](OC(=O)CC(CC(=O)[O-])C(=O)[O-])CC[C@]4(C)C3CC[C@@]21C.N.N.[Pt+4] (stereo partly specified)")
"> 100 µM"

In: Recall the reported GI50 of COc1ccc(-n2nc(C(=O)NCC(=O)Nc3nc4cc(OC)ccc4s3)c3ccccc3c2=O)cc1 on SN12C renal and write it down.
Out: 3.45 µM

In: Recall the reported GI50 of CC1=CC[C@@H]2C(=O)C=CC=C[C@H]12.[C-]#[O+].[C-]#[O+].[C-]#[O+].[Fe] on SN12C renal and write it down.
Out: > 100 µM

In: Recall the reported GI50 of O=C(/C=C/c1cc(O)ccc1O)c1ccc(Cl)cc1 on SN12C renal and write it down.
Out: 18.1 µM

In: Recall the reported GI50 of COc1ccc(OC)c(-c2nc3sc(C)cn3c2/C=C2\C(=O)N(C)c3ccccc32)c1 on SN12C renal and write it down.
Out: 20.6 µM

----------
TGI: recorded values
Test system: SF-268 CNS
Assay Name: NCI tumour cell line growth inhibition, 48 h
# output: bare number, implied unit µM

Examples with their reported TGI follow.
>>> recorded_result("C=C(CN(C)C)C(=O)c1ccccc1Cl")
42.7
>>> recorded_result("COc1cc(NC(=O)c2cc3ccccc3cc2O)c(OC)cc1Cl")
14.4

In: Read off the recorded TGI for COc1ccc2c(ccc3oc([N+](=O)[O-])cc32)c1
Out: 1.87

----------
Test system: BT-549 breast
Assay Name: NCI tumour cell line growth inhibition, 48 h
TGI: recorded values

Examples with their reported TGI follow.
>>> recorded_result("CS(=O)(=O)Nc1cccc(-c2ccc3ncnc(Nc4cncc(Cl)c4)c3c2)c1")
"7.39 µM"
>>> recorded_result("Clc1ccc(C2=Cc3nc2c(-c2ccccc2)c2ccc([nH]2)c(-c2ccccc2)c2nc(c(-c4ccccc4)c4ccc([nH]4)c3-c3ccccc3)C=C2)cc1")
"> 62.5 µM"

In: Read off the recorded TGI for COc1c(OC)c(OC)c2c(=O)c(OC)c(-c3ccc4c(c3)OCO4)oc2c1OC
Out: > 100 µM

In: Read off the recorded TGI for CCC1C[N+]2=C(c3cc(OC)c(OC)cc3CC2)c2c1cc1n2CCc2cc(OC)c(OC)cc2-1 (centres undefined)
Out: 13.5 µM

----------
System: UO-31 renal
Assay Name: NCI tumour cell line growth inhibition, 48 h
TGI: recorded values
# output: bare number, implied unit µM

>>> recorded_result("CSc1ccc(NC(=O)CCl)cc1")
9.79
>>> recorded_result("COC(=O)C[C@@H]1CC=CC(=O)/C1=C(O)/C=C/c1ccccc1")
0.826

Turning now to a further record.
In: Read off the recorded TGI for CCOc1cc(CCNC)c2c(ccc3ccc(OC)c(O)c32)c1OC
Out: 29.6

----------
TGI: recorded values
Test system: PC-3 prostate
Assay Name: NCI tumour cell line growth inhibition, 48 h
# output: bare number, implied unit µM

>>> recorded_result("CN(C)c1ccc(/C=C2\\C[C@H]3[C@@H]4CC=C5C[C@@H](O)CC[C@]5(C)[C@H]4CC[C@]3(C)[C@H]2O)cc1")
25.8
>>> recorded_result("Cc1ccc([N+](=O)[O-])cc1S(=O)(=O)Nc1ccc(C2=NN(C(=O)c3ccccc3)C(c3ccccc3O)C2)cc1 (configuration not stated)")
29
>>> recorded_result("Nc1ccccc1-n1c2c(c3ccccc3c1=O)C(=O)c1ccccc1-2")
97.4
>>> recorded_result("Cc1cc(=O)[nH]c(Sc2ccc([N+](=O)[O-])cc2[N+](=O)[O-])n1")
49.7

In: Read off the recorded TGI for CS(=O)(=O)Nc1ccc(NCc2cnc3ccc4[nH]cccc4c23)cc1
Out: 48.1

In: Read off the recorded TGI for COC(=O)C(Br)(C(=O)OC)C(Br)C(Br)C(Br)c1ccccc1 (configuration not stated)
Out: 17.3

In: Read off the recorded TGI for CCN(CC)CCOc1ccccc1-n1c(C)ccc1-c1ccccc1
Out: 29.2

In: Read off the recorded TGI for NC(N)=N/N=C/c1c(-c2cccs2)nc2n1CCS2
Out: 36

In: Read off the recorded TGI for CCOC(=O)CC1C(CNC(=O)NC)OC(n2cnc3c(NC(=O)Nc4ccccc4)ncnc32)C1O[Si](C)(C)C(C)(C)C (configuration not stated)
Out: 4.85

In: Read off the recorded TGI for O=C1/C(=C/c2ccc([N+](=O)[O-])cc2)Sc2scc(-c3cccc([N+](=O)[O-])c3)[n+]21
Out: 26.8

----------
Test system: PC-3 prostate
Assay Name: NCI tumour cell line growth inhibition, 48 h
TGI: recorded values

Examples with their reported TGI follow.
>>> recorded_result("Oc1ccc(Cl)cc1C1=Nn2c(COc3ccc4c(c3)CCCC4)nnc2SC1")
"26.7 µM"
>>> recorded_result("Cn1c(=O)c2[nH]c(CCS)nc2n(C)c1=O")
"> 100 µM"
>>> recorded_result("CC(NNC(=S)N1CCN(c2ccccn2)CC1)c1cccc[n+]1[O-] (stereo not given)")
"> 100 µM"
>>> recorded_result("O=C(Cc1ccccc1)Nc1nc2ccc(Cl)cc2c2nc(-c3ccco3)nn12")
"> 100 µM"

Turning now to a further record.
In: Read off the recorded TGI for O=C(c1ccccc1)N1CCC(Nc2cccnc2)O1 (stereo not given)
Out: > 100 µM
